Numbers sourced from the supplement of paper PMC10567573.

Listed here: items and their measured protein stability index.
B1: TMEM192 (parent)
chain: ILGKVILWILHLLLECYIQYHHSK

# Variants of: B1
# ASSAY METHOD TEXT: protein stability index of a GFP-peptide fusion (GPS, HEK-293T) (PSI 1-6); higher = more stable;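 further: lentivirally expressed fusions sorted by FACS into six bins by GFP to DsRed ratio, PSI derived from sequencing read proportions per bin multiplied by bin number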
# CONDITION PARAMETERS: c terminus: a fixed tail appended

> print(dat)
    var        measured.endpoint  result
1   G3V  protein stability index    2.32
2  H11R  protein stability index    3.16
3  L13I  protein stability index    2.04

Input line: Name the reported protein stability index value associated with the variant `L7E`
Output line: 3.07
